Each recorded value in this set is attributed to patent US20210137903A1.

experimental-protocol: Single 240-mg dose pharmacokinetics in healthy subjects (earlier studies)
Format: in vivo, human
applied-conditions: human, plasma, oral, 240 mg, N=15; read-out: mean single dose plasma Cmax
parameter: Cmax

# compound, result
records = [
    ("CNC(=O)c1ccc(N2C(=S)N(c3cnc(C#N)c(C(F)(F)F)c3)C(=O)C23CCC3)cc1F [apalutamide]", "~2400 ng/mL"),
]

* * *

experimental-protocol: Single 240-mg dose pharmacokinetics in healthy subjects (earlier studies)
Type: in vivo, human
applied-conditions: human, plasma, oral; single 240-mg dose, tablet, healthy subjects; read-out: median Tmax

# compound, Tmax
records = [
    ("CNC(=O)c1ccc(N2C(=S)N(c3cnc(C#N)c(C(F)(F)F)c3)C(=O)C23CCC3)cc1F [apalutamide]", "2 to 3 h"),
]

* * *

experimental-protocol: Single 240-mg dose pharmacokinetics in healthy subjects (earlier studies)
Type: in vivo, human
applied-conditions: human, plasma, oral, 240 mg, human; read-out: half-life (converted)
From the text: Apalutamide is a Biopharmaceutics Classification System Class II drug (highly permeable and poorly soluble). The commercialized formulation is a spray dried powder of amorphous apalutamide.

# compound, half-life
measured = [
    ("CNC(=O)c1ccc(N2C(=S)N(c3cnc(C#N)c(C(F)(F)F)c3)C(=O)C23CCC3)cc1F [apalutamide]", "~168 h"),
]

* * *

experimental-protocol: Single 240-mg dose pharmacokinetics in healthy subjects (earlier studies)
Type: in vivo, human
applied-conditions: human, plasma, oral, 240 mg; read-out: mean elimination half-life (t1/2) (converted)
parameter: half-life

# molecule, result
rows = [
    ("CNC(=O)c1ccc(N2C(=S)N(c3cnc(C#N)c(C(F)(F)F)c3)C(=O)C23CCC3)cc1F [apalutamide]", "~162 h"),
]

* * *

experimental-protocol: Single 240-mg dose pharmacokinetics in healthy subjects (earlier studies)
Type: in vivo, human
applied-conditions: human, plasma, oral; 240 mg, N=15; read-out: mean AUC28
parameter: AUC

# compound, parameter, result
rows = [
    ("CNC(=O)c1ccc(N2C(=S)N(c3cnc(C#N)c(C(F)(F)F)c3)C(=O)C23CCC3)cc1F [apalutamide]", "AUC", "225 µg·h/mL"),
]

* * *

experimental-protocol: Single 240-mg dose pharmacokinetics in healthy subjects (earlier studies)
Format: in vivo, human
applied-conditions: human, in vivo, oral; single dose 240 mg; read-out: absolute bioavailability
parameter: bioavailability

# compound, parameter, result
data = [
    ("CNC(=O)c1ccc(N2C(=S)N(c3cnc(C#N)c(C(F)(F)F)c3)C(=O)C23CCC3)cc1F [apalutamide]", "bioavailability", "~100%"),
]

* * *

experimental-protocol: Single 240-mg dose pharmacokinetics in healthy subjects (earlier studies)
Format: in vivo, human
applied-conditions: human, plasma, oral, 240 mg; read-out: mean Cmax from a similar study

# compound, Cmax (ng/mL)
measured = [
    ("CNC(=O)c1ccc(N2C(=S)N(c3cnc(C#N)c(C(F)(F)F)c3)C(=O)C23CCC3)cc1F [apalutamide]", 2420),
]
